B1: VAMP4 (parent)
chain: FLRGPSGPRFGPRNDKIKHVQNQV

Variants of: B1
Assay: protein stability index of a GFP-peptide fusion (GPS, HEK-293T) (PSI 1-6); higher = more stable;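 note: lentivirally expressed fusions sorted by FACS into six bins by GFP to DsRed ratio, PSI derived from sequencing read proportions per bin multiplied by bin number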
Conditions: c terminus: a fixed tail appended
Note to self: values exactly at 3 are Condition met. So protein stability index at or above 3 is Condition met, below is Condition not met.

Consider the following illustrative entries.
residue_change=K16Y classification="Condition not met"
residue_change=H19Y classification="Condition not met"
residue_change=K16V classification="Condition not met"

Quick check, protein stability index >= 3? V20R
Condition met

Quick check, protein stability index >= 3? S6G
Condition not met

Ref: the supplement of paper PMC10567573
